// reported composite z-score per item
- Tested on: wheat germ agglutinin (Triticum aestivum), Alexa647-labelled
- assay_summary: Alexa647-WGA lectin binding to printed small molecules – biochemical, small-molecule microarray, 635/667 nm fluorescence, artefact control for SMM control-protein annotation, profiling panel (AID 1140);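 note: score merges 667 nm feature emission with signal to noise over triplicate slides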
- stated_conditions: WGA-A647 binding, 635 nm fluorescence, higher = more signal
Note: the reply should be a number with no unit written.

Please review the entries below; each comes with its answer.
1. CC[C@@H]1C=C(C(=O)O)[C@H](c2ccccc2)N1S(=O)(=O)c1ccc(C)cc1 | 1.05
2. CCCC=C(CCC)[C@@H](NS(=O)(=O)CC12CCC(CC1=O)C2(C)C)c1ccc(C(=O)OC)cc1 (stereo partly drawn) | 0.301
3. N#Cc1ccc(NN2C(C(O)c3ccc(Br)cc3)C=CC3C(=O)N(c4ccccc4)C(=O)C32)cc1 (stereo not drawn) | 1.49
4. C=CC[C@]1(C(=O)N2CCOCC2)COC(c2ccc(OCCCO)cc2)=N1 | 0.959
5. CCOC(=O)C[C@H]1[C@H](OC(=O)c2ccc(-c3ccccc3)cc2)[C@@H](NC(=O)CC(C)C)c2cc(OCCCO)ccc2N1C(=O)c1ccc2ccccc2n1 | 0.262

Request: Dear colleague, I am looking for the recorded composite z-score of the following molecule: NC(=O)[C@@]1(Cc2ccccc2)COC(c2ccc(OCCCO)cc2)=N1
Response: 0.523

Request: Bench note: what composite z-score did COc1ccccc1CN1C(=O)c2ccccc2[C@](Cc2ccccc2I)(C(=O)O)[C@@H]1c1ccc(CO)cc1 show?
Response: 0.762

Request: Recorded composite z-score for Cc1ccc(S[C@]2(C(=O)NCc3ccccc3)CC(=O)N(C3CCCCC3)[C@@H]2c2ccc(CO)cc2I)cc1 , please?
Response: 0.68

Data origin, for the record: PubChem BioAssay
